# System: E. coli JMI 10768
# method: MIC, antibacterial and synergistic activity
# Type: cell-based
# assay-context: E. coli JMI 10768 (CTX-M15 (Weak ESBL)); Meropenem + inhibitor at 4 µg/mL
MIC Meropenem + inhibitor values for the compounds below.
quantity-name: MIC Meropenem + inhibitor

{"compound": "CC(=O)NNC(=O)[C@@H]1CC[C@@H]2CN1C(=O)N2OS(=O)(=O)O [Ex. 5]", "endpoint-result": "≤0.031 µg/mL"}
{"compound": "O=C(NO[C@H]1CCCNC1)[C@@H]1CC[C@@H]2CN1C(=O)N2OS(=O)(=O)O [Ex. 2]", "endpoint-result": "≤.031 µg/mL"}
{"compound": "NCCONC(=O)[C@@H]1CC[C@@H]2CN1C(=O)N2OS(=O)(=O)O [Ex. 3]", "endpoint-result": "0.062 µg/mL"}
{"compound": "O=C(NNC(=O)[C@H]1CC[C@H]2CN1C(=O)N2OS(=O)(=O)O)C1CNC1 (stereo in doubt) [Ex. 9]", "endpoint-result": "≤0.03 µg/mL"}
{"compound": "O=C(NO[C@H]1CCNC1)[C@@H]1CC[C@@H]2CN1C(=O)N2OS(=O)(=O)O [Ex. 1]", "endpoint-result": "≤.031 µg/mL"}
{"compound": "O=C(NNC(=O)[C@H]1CC[C@H]2CN1C(=O)N2OS(=O)(=O)O)C1CC1 (stereo in doubt) [Ex. 7]", "endpoint-result": "≤0.0312 µg/mL"}
{"compound": "CCC(=O)NNC(=O)[C@@H]1CC[C@@H]2CN1C(=O)N2OS(=O)(=O)O [Ex. 8]", "endpoint-result": "≤0.0312 µg/mL"}

---

# Tested on: E. coli JMI 10770
# method: MIC, antibacterial and synergistic activity
# Type: cell-based
# assay-context: E. coli JMI 10770 (CTX-M15 (Hyper ESBL)); Meropenem + inhibitor at 4 µg/mL
MIC Meropenem + inhibitor values for the compounds below.

{"compound": "NCCONC(=O)[C@@H]1CC[C@@H]2CN1C(=O)N2OS(=O)(=O)O", "MIC Meropenem + inhibitor": "0.062 µg/mL"}
{"compound": "CCC(=O)NNC(=O)[C@@H]1CC[C@@H]2CN1C(=O)N2OS(=O)(=O)O", "MIC Meropenem + inhibitor": "≤0.0312 µg/mL"}
{"compound": "O=C(NNC(=O)[C@H]1CC[C@H]2CN1C(=O)N2OS(=O)(=O)O)C1CC1 (stereo in doubt)", "MIC Meropenem + inhibitor": "≤0.0312 µg/mL"}
{"compound": "O=C(NO[C@H]1CCNC1)[C@@H]1CC[C@@H]2CN1C(=O)N2OS(=O)(=O)O", "MIC Meropenem + inhibitor": "≤.031 µg/mL"}
{"compound": "CC(=O)NNC(=O)[C@@H]1CC[C@@H]2CN1C(=O)N2OS(=O)(=O)O", "MIC Meropenem + inhibitor": "≤0.031 µg/mL"}
{"compound": "O=C(NNC(=O)[C@H]1CC[C@H]2CN1C(=O)N2OS(=O)(=O)O)C1CNC1 (stereo in doubt)", "MIC Meropenem + inhibitor": "≤0.03 µg/mL"}
{"compound": "O=C(NO[C@H]1CCCNC1)[C@@H]1CC[C@@H]2CN1C(=O)N2OS(=O)(=O)O", "MIC Meropenem + inhibitor": "≤.031 µg/mL"}
